Test: Eye irritation test with MCTT HCE (OECD test guideline 492)
Format: cell-based, human
Conditions: human; 3D culture MCTT HCE, TRAP1 inhibitors at 2 mM, WST-1 assay, n = 4, mean ± SEM; read-out: Percentage viability (%)

Smiles structure: COC1=C(OC)C(=O)C(CCCCCCCCCC[P+](c2ccccc2)(c2ccccc2)c2ccccc2)=C(C)C1=O
Unit name: %
viability at 10 min, 2 mM: 63.5

----------
Assay: Normal cell cytotoxicity in primary Müller cells (trypan blue staining)
Format: cell-based
Conditions: mouse, primary Müller cells from mouse retina, 24 hr under hypoxia, n = 4, mean ± SEM
Protocol: Mouse primary Müller cells were isolated as reported previously.^[ [43] ^] In brief, retinas were isolated from P5–P7 mice and dissociated using a Papain Dissociation Kit (Worthington Industries; Columbus, OH, USA). […] bar, 500 μm. B) Quantification of avascular and neovascular tuft areas in OIR mice intravitreally injected with MitoQ (n = 5 mice/group). […] Harvested retinal samples were whole-mounted and analyzed as in (A). […] The culture thickness (n = 5) was measured and analyzed (Table S1). […]

Smiles structure: COC1=C(OC)C(=O)C(CCCCCCCCCC[P+](c2ccccc2)(c2ccccc2)c2ccccc2)=C(C)C1=O
Unit name: µM
IC50 at 24 h: 22

----------
System: mouse primary Müller cells
Test: Normal cell cytotoxicity in primary Müller cells (trypan blue staining)
Format: cell-based
Details: 24 hr under hypoxia, n = 4, mean ± SEM
pIC50: −log10 of the molar value.

Smiles structure: COC1=C(OC)C(=O)C(CCCCCCCCCC[P+](c2ccccc2)(c2ccccc2)c2ccccc2)=C(C)C1=O
Measured on: mouse primary Müller cells
pIC50: 4.65
